biological target: HCoV-229E Mpro (Human coronavirus 229E); test: HCoV-229E Mpro enzymatic inhibition assay (fluorescence); assay type: biochemical
Sequence (P0C6X1 2966-3267 limits assumed): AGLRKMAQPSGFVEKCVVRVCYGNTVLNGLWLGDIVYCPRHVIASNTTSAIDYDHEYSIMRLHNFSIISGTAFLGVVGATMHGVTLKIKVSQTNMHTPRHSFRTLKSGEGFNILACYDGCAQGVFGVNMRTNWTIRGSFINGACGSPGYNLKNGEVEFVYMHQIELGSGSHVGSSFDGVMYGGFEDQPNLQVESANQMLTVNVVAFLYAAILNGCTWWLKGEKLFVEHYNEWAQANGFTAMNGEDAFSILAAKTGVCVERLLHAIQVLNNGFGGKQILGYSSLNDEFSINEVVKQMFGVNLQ
quantity.measured: pIC50
Expect pIC50 as a plain number equal to -log10 of the molar concentration.

Below: 5 compounds and their reported pIC50.
N#Cc1ccc2cc(C(=O)N3CC4(CC4)C[C@H]3C(=O)N[C@H](C=O)C[C@@H]3CCNC3=O)[nH]c2c1 [Compound 82] = 7.58
O=C[C@H](C[C@@H]1CCNC1=O)NC(=O)[C@@H]1C[C@@H]2CCCC[C@@H]2N1C(=O)c1cc2ccccc2[nH]1 [Compound 113] = 7.48
CC(C)(C)[C@H](NC(=O)C(F)(F)F)C(=O)N1C[C@H]2[C@@H]([C@H]1C(=O)N[C@H](C=O)C[C@@H]1CCNC1=O)C2(C)C [Compound 12] = 7.47
O=C[C@H](C[C@@H]1CCNC1=O)NC(=O)[C@@H]1C[C@@H](C2CCCCC2)CN1C(=O)c1cc2cccc(F)c2[nH]1 [Compound 71] = 7.27
C[C@H](C(=O)N1C[C@H]2[C@@H]([C@H]1C(=O)N[C@H](C=O)C[C@@H]1CCNC1=O)C2(C)C)C1CCCCC1 [Compound 92] = 7.36

Request: Which pIC50 value is on record for CC1(C)[C@@H]2[C@@H](C(=O)N[C@H](C=O)C[C@@H]3CCCNC3=O)N(C(=O)CC3CCCCC3)C[C@@H]21 [Compound 79] ?
Result: 7.29

Request: Which pIC50 value is on record for CC1(C)[C@@H]2[C@@H](C(=O)N[C@H](C=O)C[C@@H]3CCNC3=O)N(C(=O)c3cc4cccc(C#N)c4[nH]3)C[C@@H]21 [Compound 32] ?
Result: 7.45

Request: Which pIC50 value is on record for Cc1ccc(F)c2[nH]c(C(=O)N3C[C@H]4[C@@H]([C@H]3C(=O)N[C@H](C=O)C[C@@H]3CCNC3=O)C4(C)C)cc12 [Compound 77] ?
Result: 7.38
